# Test system: HepG2
# PROTOCOL DESCRIPTION: GSK_TCMDC: Percent inhibition of human HepG2 cell line. Test compounds present at 10uM.
# Assay type: functional
Class (by Inhibition) -- lower bin: < 5%; middle bin: ≥ 5% and < 20%; upper bin: ≥ 20%

>>> label_class("CC(=O)Nc1ccc(CN2CCN(C(c3ccc(F)cc3)c3ccc(F)cc3)CC2)cc1")
"lower bin"
>>> label_class("Cl.O=C(NCCCCN1CCC(c2ccc3ccccc3c2O)CC1)c1ccc(-c2ccc(Cl)cc2)cc1")
"upper bin"
>>> label_class("FC(F)(F)c1cccc(CCNc2nccc(NCc3ccc(Cl)cc3Cl)n2)c1")
"middle bin"
>>> label_class("Cc1cc(OCCCN2CCCCC2)ccc1NC(=O)COc1ccc(Cl)cc1C(=O)c1cc(Cl)cc(C#N)c1")
"upper bin"
>>> label_class("CN(C)CCOc1cc(NC(=O)Nc2ccc(-c3ccncc3)c(C(F)(F)F)c2)ccc1Cl")
"upper bin"
>>> label_class("Cc1ccc2nc3sc(C(=O)NCCCN4CCC(N5CCCCC5)CC4)cc3cc2c1")
"middle bin"
>>> label_class("CCCc1cc(Cc2cnc(N)nc2N)cc(OC)c1OC")
"lower bin"
>>> label_class("O=C(Nc1ccc(N2CCN(Cc3cccc(F)c3)CC2)cc1)c1cccs1.O=C(O)C(F)(F)F")
"lower bin"
>>> label_class("COc1ccc(-c2ccc(NC(=O)c3cccc(Cl)c3)cc2)cc1CNC(C)C.O=C(O)C(F)(F)F")
"upper bin"
>>> label_class("Cl.N=C(N)c1ccc(NN=Cc2ccc(Oc3ccc(C(=N)N)cc3)cc2)cc1")
"middle bin"
>>> label_class("Cc1c(CNCCCNc2nc3ccncc3[nH]2)sc(Br)c1Br.Cl")
"lower bin"
>>> label_class("CC[C@H](C)CNC(=O)c1cncc(-c2ccc(CNCC3CNCCCO3)cc2)c1.O=C(O)C(F)(F)F (some centres undefined)")
"lower bin"
>>> label_class("Cn1c(NC2CCN(CC3CCN(C(=O)/C=C/c4ccc(Cl)c(Cl)c4)CC3)CC2)nc2ccccc21")
"upper bin"
>>> label_class("CC(=O)Nc1ccc(CN2CCc3ccc(NS(=O)(=O)c4cccc(OCc5ccc(Cl)cc5)c4)cc3CC2)s1")
"upper bin"
>>> label_class("CC(C)c1ccc(NC(=O)c2ccc(NCCCN(C)Cc3ccccc3)c([N+](=O)[O-])c2)cc1")
"upper bin"
>>> label_class("NCCCNc1nccc(N2CCc3ncnc(Nc4ccc(OCc5cccc(F)c5)c(Cl)c4)c3C2)n1")
"middle bin"
>>> label_class("Cc1cccc2nc(-c3cccc(-c4ccc(NC(=O)COc5ccccc5C(N)=O)cc4)c3)[nH]c12")
"middle bin"
>>> label_class("O=C(/C=C/c1ccc(Cl)c(Cl)c1)NCCCCN1CCCN(C(=O)Nc2ccc(Cl)c(Cl)c2)CC1")
"upper bin"
>>> label_class("CC1(C)NC(N)=NC(=N)N1OCOc1ccc(Cl)cc1.Cl")
"upper bin"
>>> label_class("Cl.Cl.N=C(N)c1cccc(-c2cc(-c3cccc(C(=N)N)c3)on2)c1")
"middle bin"
>>> label_class("CCC[C@@H]1CCN[C@H]([C@H](O)c2ccnc3ccc(OC)cc23)C1.Cl")
"lower bin"
>>> label_class("Cc1ccc(Cn2ncc(N3CCNCC3)c(Cl)c2=O)cc1NC(=O)Nc1ccc(-c2ccccc2)cc1.O=C(O)C(F)(F)F")
"upper bin"
>>> label_class("CCOc1cc(NC(=O)Nc2ccnc3ccccc23)cc(OC)c1.Cl")
"lower bin"
>>> label_class("CCN1CCN(Cc2ccc3nc(-c4cc(C)n(Cc5cc(Cl)ccc5OCc5ccccc5)n4)[nH]c3c2)CC1.Cl")
"middle bin"
>>> label_class("CCN(CC)CCCC(C)Nc1ccnc2ccc(-c3ccccc3)cc12 (centres undefined)")
"lower bin"
>>> label_class("COc1cc(F)c2ncc(Cl)c(CCN3CCC(NCc4ccc5c(c4)NC(=O)CS5)CC3)c2c1.Cl")
"upper bin"
>>> label_class("O=C(Nc1cccc(CN2CCCN(Cc3ccc(O)cc3)CC2)c1)c1ccc2ccccc2n1.O=C(O)C(F)(F)F")
"middle bin"
>>> label_class("Cc1cc(N[C@@H](CC(C)C)C(=O)NCc2cccc(F)c2)nc(Nc2ccccc2)n1.O=C(O)C(F)(F)F")
"lower bin"
>>> label_class("Cc1ccc2[nH]c(Nc3ccc(Nc4nc5cc(C)ccc5[nH]4)c(C)c3)nc2c1")
"middle bin"
>>> label_class("Cc1ccnc(-n2c(C)cc(C=C3SC(=Nc4ccccc4)N(Cc4ccco4)C3=O)c2C)c1")
"lower bin"
>>> label_class("CCNC(=O)Nc1cccc(-c2ccc(-c3nc4cccc(C)c4[nH]3)s2)c1")
"upper bin"
>>> label_class("COc1ccc(Nc2nc(=Nc3ccccc3)nc(NN=Cc3cc(Cl)ccc3O)[nH]2)cc1")
"upper bin"

----------
# Test system: Plasmodium falciparum
# PROTOCOL DESCRIPTION: GSK_TCMDC: Inhibition of Plasmodium falciparum Dd2 in whole red blood cells, using parasite LDH activity as an index of growth. Test compounds present at 2uM
# Type: functional
PROPERTY MEASURED: Inhibition

>>> readout_value("CC(C)c1ccc(NC(=O)Nc2ccc(CCNCCCc3ccccc3)cc2)cc1")
"56%"
>>> readout_value("Cl.c1ccc2c(C3CCN(CCCCOc4ccc5c(c4)CCN(CC4CC4)CC5)CC3)c[nH]c2c1")
"97%"
>>> readout_value("CN(C)CCNC(=O)c1ccc2c(c1)n(C1CCN(S(=O)(=O)c3ccc(-c4ccccc4)cc3)CC1)c(=O)n2CC1CCCCC1")
"66%"
>>> readout_value("O=C(O)C(F)(F)F.O=S(=O)(NC1CCN(c2ccnc3cc(Cl)ccc23)C1)c1cccc(F)c1 (centres undefined)")
"88%"

----------
# Tested on: Plasmodium falciparum
# PROTOCOL DESCRIPTION: GSK_TCMDC: Inhibition of Plasmodium falciparum 3D7 in whole red blood cells, using parasite LDH activity as an index of growth. Test compounds present at 2uM
# Assay type: functional
# Inhibition annotations
PROPERTY MEASURED: Inhibition (%)

>>> readout_value("CCCCCOc1ccc(C=NNc2nc(O)cc(-c3ccccc3)n2)cc1")
88
>>> readout_value("CCn1c(-c2nonc2N)nc2c(-c3cccc(Cl)c3)ncc(OCCCNCCc3c[nH]cn3)c21.O=C(O)C(F)(F)F")
100
>>> readout_value("CN1CCN(CCCN(Cc2cccc(-c3ccc(CNCc4ccc5c(c4)OCO5)cc3)c2)C(=O)CCC2CCCC2)CC1.O=C(O)C(F)(F)F")
98
>>> readout_value("Fc1ccc2[nH]c(-c3cccc(-c4cccc(CNCc5cnn(-c6ccccc6)n5)c4)c3)nc2c1.O=C(O)C(F)(F)F")
91
>>> readout_value("O=C(NC(Nc1ccc([N+](=O)[O-])cc1)C(Cl)(Cl)Cl)c1cccc(Cl)c1 (configuration not stated)")
92
>>> readout_value("CC(C)(C)c1ccc(NC(=O)c2ccc(CN3CCCN(Cc4cccc(O)c4)CC3)cc2)cc1.O=C(O)C(F)(F)F")
100
>>> readout_value("CC(C)Nc1cc(C(=O)N[C@@H](Cc2ccccc2)[C@H](O)CNC(C)(C)c2cccc(C(F)(F)F)c2)cc(N2CCCCS2(=O)=O)c1.O=CO")
98

----------
# System: Plasmodium falciparum
# PROTOCOL DESCRIPTION: GSK_TCMDC: Inhibition of Plasmodium falciparum Dd2 in whole red blood cells, using parasite LDH activity as an index of growth. Test compounds present at 2uM
# Format: functional
PROPERTY MEASURED: Inhibition (%)

>>> readout_value("OC1=C2C(=Nc3ccccc3SC2c2cccs2)c2ccccc21 (centres undefined)")
93
>>> readout_value("COc1ccc2nccc([C@@H](O)CN3CCC(NCc4ccc5c(c4)NC(=O)CO5)CC3)c2c1.Cl")
6
>>> readout_value("COc1cc2c(cc1C(F)(F)F)N(C(=O)Nc1cc(F)cc(-c3cccnn3)c1)CC2")
34
>>> readout_value("CC1CN(c2ccnc3ccc(Sc4ccc(Oc5ccccc5)cc4)cc23)CC(C)N1.Cl (centres undefined)")
99
>>> readout_value("Cc1cc(N[C@@H](CC(C)C)C(=O)NC2CCCC2)nc(NCCc2ccc(F)cc2)n1.O=C(O)C(F)(F)F")
47
>>> readout_value("CCOC(=O)NC1=NC(C)(C)N(OCc2ccc(Cl)c(Cl)c2)C(NC(=O)OCC)=N1")
4
>>> readout_value("CSc1ccc(CN2CCC(NC(=O)c3ccc(-c4cccc(Cl)c4)s3)CC2)cc1.O=C(O)C(F)(F)F")
19
>>> readout_value("CC1(CCc2ccccc2)N=C(N)N=C(N)C1c1ccc(Cl)c(Cl)c1.Cl (centres undefined)")
39
>>> readout_value("CCN1CCN(c2cc(C)c3cc(NC(=O)c4ccc(OC)c(OC)c4)ccc3n2)CC1")
23

----------
# System: Plasmodium falciparum
# PROTOCOL DESCRIPTION: GSK_TCMDC: Inhibition of Plasmodium falciparum 3D7 in whole red blood cells, using parasite LDH activity as an index of growth. Test compounds present at 2uM
# Assay type: functional
# Inhibition annotations
PROPERTY MEASURED: Inhibition (%)

>>> readout_value("Br.CCOc1ccc(OCCCON2C(=N)N=C(N)NC2(C)C)cc1")
97
>>> readout_value("C#CCN(Cc1ccc2[nH]c(N)nc(=O)c2c1)c1ccc(C(=O)N[C@@H](CCC(=O)O)C(=O)O)cc1")
95
>>> readout_value("COc1ccc(CNC2Cc3ccccc3C2)cc1-c1ccc(OC)c(S(=O)(=O)NCCN2CCCC2)c1.O=C(O)C(F)(F)F")
100
>>> readout_value("CCCCN(CCCC)CCOc1cc2c(cc1OC)CCN2C(=O)/C=C/c1ccccc1Cl.Cl")
87
>>> readout_value("O=C(Nc1cccc(C(F)(F)F)c1)NC1CCN(c2ccnc3ccccc23)CC1.O=C(O)C(F)(F)F")
100
>>> readout_value("CCN(CCCN1CCCCC1)c1cc(C)nc(Nc2ccc(C)cc2C)n1.O=C(O)C(F)(F)F")
91
>>> readout_value("N#Cc1ccc(-c2ccc(OCC(O)CN3CCCN(C(=O)C(c4ccc5c(c4)OCO5)N4CCN(C/C=C/c5ccccc5)CC4)CC3)cc2)cc1 (stereo not given)")
99
>>> readout_value("COc1c(C2CCN(CCCCNC(=O)c3noc(-c4ccc(C#N)cc4)n3)CC2)ccc2c1CCCC2")
99
>>> readout_value("COc1cccc(OC)c1C(=O)Nc1cccc(-c2nn3ccccc3c2-c2ccnc(Nc3cccc(F)c3)n2)c1")
95
>>> readout_value("COC(=O)c1cccc(N2CCN(CCCNC(=O)/C(=C/C=C/c3cc4cc(Cl)c(Cl)cc4[nH]3)OC)CC2)c1.Cl")
100
>>> readout_value("Nc1c(-c2ccc(C(=O)NCCNCc3ccccc3)cc2)cnn1-c1ccc(C(F)(F)F)cc1.O=C(O)C(F)(F)F")
85
>>> readout_value("Cc1cc(N2CCC(NS(=O)(=O)c3ccc(F)cc3)CC2)nc(Nc2cccc(C#N)c2)n1.O=C(O)C(F)(F)F")
97
>>> readout_value("CC(=O)Nc1ccc(NC(=O)c2cc(-c3cc(Cl)ccc3O)n[nH]2)cc1")
100
>>> readout_value("Cl.c1ccc(CC2=NCCN2)cc1 [TOLAZOLINE HYDROCHLORIDE]")
94
>>> readout_value("Cc1ccc2c(c1)nc(N)n2C[C@H](O)c1ccccc1")
100
